# System: MDA-MB-435
# measurementProtocol: NCI tumour cell line growth inhibition, 48 h
// reported TGI per item
measurementLabel: TGI

[[record]]
compound = "CCN(CC)/[N+]([O-])=N/OS(=O)(=O)N(C)C"
reportedmeasurement = "> 100 µM"

[[record]]
compound = "CC(C)c1ccc2c(c1)CCC1C2CCCC1(C)NCc1ccccc1 (centres undefined)"
reportedmeasurement = "9.64 µM"

[[record]]
compound = "Fc1ccc2c(c1)SC1=Nc3sc4cc(F)ccc4[n+]3CN12"
reportedmeasurement = "> 100 µM"

[[record]]
compound = "C#CCN(C(=O)C(F)(F)F)C(/C=C\\C(=O)OC)(C(=O)OCC)C(=O)OCC"
reportedmeasurement = "> 100 µM"


---

This section presents compounds with their documented GI50 values.
# System: EKVX NSCLC
# measurementProtocol: NCI tumour cell line growth inhibition, 48 h
measurementLabel: GI50

[[record]]
compound = "N#CC1=C(N)Oc2c(ccc3ccccc23)C1c1cc2ccccc2n2nnnc12 (stereo unspecified)"
testedon = "EKVX NSCLC"
reportedmeasurement = "5.8 µM"

[[record]]
compound = "Nc1cc(C(F)(F)F)c(-c2nc(N3CCOCC3)nc(N3CCOCC3)n2)cn1"
testedon = "EKVX NSCLC"
reportedmeasurement = "0.31 µM"

[[record]]
compound = "O=C1C[C@@H]2OCC=C3C[N+]4([O-])CC[C@]56c7ccccc7N1[C@H]5[C@H]2[C@H]3C[C@@H]64 (stereo partly specified)"
testedon = "EKVX NSCLC"
reportedmeasurement = "> 100 µM"

[[record]]
compound = "O=[N+]([O-])c1ccc(N/N=C\\c2cc(Br)ccc2O)nc1"
testedon = "EKVX NSCLC"
reportedmeasurement = "2.4 µM"

[[record]]
compound = "CC(C)c1ccc2c(c1)CCC1C2CCCC1(C)NCc1ccccc1 (stereo unspecified)"
testedon = "EKVX NSCLC"
reportedmeasurement = "10.7 µM"

[[record]]
compound = "COc1ccc([C@@H]2[C@@H](Oc3ccccc3)C(=O)N2c2cc(OC)c(OC)c(OC)c2)cc1F"
testedon = "EKVX NSCLC"
reportedmeasurement = "0.465 µM"

[[record]]
compound = "CCCCCCCCCCCCOC1C(C(COC2OC(C(O)CO)C3OC(C)(C)OC23)OC(=O)Nc2ccccc2)OC2OC(C)(C)OC21 (stereo unspecified)"
testedon = "EKVX NSCLC"
reportedmeasurement = "9.94 µM"

[[record]]
compound = "COc1ccc(-n2c(=O)c3ccccc3n(Cc3ccc(C(=O)NO)cc3)c2=O)cc1"
testedon = "EKVX NSCLC"
reportedmeasurement = "1.92 µM"

[[record]]
compound = "COc1cc(/C=C/c2cc(/C=C/c3ccc(O)c(OC)c3)n(C(=O)Nc3ccc(C)cc3)n2)ccc1O"
testedon = "EKVX NSCLC"
reportedmeasurement = "0.992 µM"

[[record]]
compound = "O=S(=O)(Nc1ccccc1)c1ccc(C2CC3(Cl)C(Cl)=C(Cl)C2(Cl)C3(Cl)Cl)cc1 (stereo unspecified)"
testedon = "EKVX NSCLC"
reportedmeasurement = "3.02 µM"

[[record]]
compound = "CN(C)c1ccc(/C=N/N=C(\\C#N)[S][Sn]([Cl])([c]2ccccc2)[c]2ccccc2)cc1"
testedon = "EKVX NSCLC"
reportedmeasurement = "1.67 µM"

[[record]]
compound = "COc1cc2c3c(n(CCCN)c(=O)c2cc1OC)-c1ccc(N)cc1C3=O"
testedon = "EKVX NSCLC"
reportedmeasurement = "9.15 µM"

[[record]]
compound = "C/C(=C\\c1csc(C)n1)[C@@H]1C[C@@H]2O[C@]2(C)CCC[C@H](C)[C@H](O)[C@@H](C)C(=O)C(C)(C)[C@@H](O)CC(=O)N1"
testedon = "EKVX NSCLC"
reportedmeasurement = "0.000337 µM"

[[record]]
compound = "CN(c1ccccc1)c1c2ccccc2nc2[nH]c3ccccc3c12"
testedon = "EKVX NSCLC"
reportedmeasurement = "5.04 µM"

[[record]]
compound = "O=C1NC(=O)C2C3C=CC(C12)C1C2C(=O)NC(=O)C2C31 (stereo unspecified)"
testedon = "EKVX NSCLC"
reportedmeasurement = "543 µM"

[[record]]
compound = "O=C1[C@H](Cc2ccc(O)cc2)N2C(=O)CCN(C(=O)NCc3ccccc3)[C@H]2CN1Cc1cccc2ccccc12"
testedon = "EKVX NSCLC"
reportedmeasurement = "3.81 µM"

